- test-summary: qHTS assay to identify small molecule antagonists of the estrogen receptor beta (ER-beta) signaling pathway - cell viability counter screen (AID 1259382);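 further: HEK293T cells carrying ER-beta-UAS-bla reporter stimulated with estradiol; nearly all actives have a fitted effect of over 55% in size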
- condition-description: ER-beta-UAS-bla HEK293T viability, CellTiter-Glo luminescence, 16 h; series mostly up to 92.4 µM
Results filed as inconclusive are left out. Activity calls are given as the source filed them. The call rests on the fitted dose curve; in most records, active means well fitted cell-killing curve with a large enough effect in the repeat runs; inconclusive means weak or mixed curves; inactive means flat fitted curve, though single readings scatter.
observable: outcome

Solved cases (6 shown):
compound: Cc1cccc(N)c1
observable: outcome
observed-result: inactive

compound: Cc1cccc(N)c1C
observable: outcome
observed-result: inactive

compound: NNc1ccccc1
observable: outcome
observed-result: inactive

compound: [N-]=[N+]=CC(=O)OC[C@H](N)C(=O)O
observable: outcome
observed-result: inactive

compound: Cc1cc(O)ccc1Cl
observable: outcome
observed-result: inactive

compound: FC(F)(F)c1ccc(Cl)cc1
observable: outcome
observed-result: inactive

Prompt: Please indicate outcome recorded for OCCCCO
Completion: inactive

Prompt: Recall and state the measured outcome for Cc1ccc(N)cc1 .
Completion: inactive

Prompt: Answer with the recorded outcome of Oc1ccc(Cl)cc1 only.
Completion: inactive

Prompt: Answer with the recorded outcome of C[C@]12CC[C@H](O)CC1=CC[C@@H]1[C@@H]2CC[C@]2(C)C(=O)CC[C@@H]12 only.
Completion: inactive

Prompt: Kindly indicate its recorded outcome. Item: O=C/C=C/c1ccccc1
Completion: inactive

###

- measured-target: Aryl hydrocarbon receptor (Homo sapiens)
- test-summary: qHTS assay to identify small molecule that activate the aryl hydrocarbon receptor (AhR) signaling pathway (AID 743085);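 further: HG2L7.5c1 human HepG2 liver cells with stably integrated DRE-driven firefly reporter; nearly all actives have a fitted effect of over 15% in size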
- condition-description: HepG2 AhR-luc (HG2L7.5c1), luciferase, 24 h; series mostly up to 70.3 µM
Results filed as inconclusive are left out. Active and inactive are the calls of the source. Calls come from the whole dose curve; as a rule, active = well fitted activation curve with a large enough effect in the repeat runs; inconclusive = weak or mixed curves; inactive = no such curve, though single readings can be large or run the other way.
Return exactly one item of 1 = active, -1 = inactive

compound: ClCCOCCCl
label: -1

Now let's try a different one.
Prompt: What classification did FC(F)(F)c1ccc(Cl)cc1 end up with in this test?
Completion: -1

###

- test-summary: qHTS assay to identify small molecule agonists of the retinoic acid receptor (RAR) signaling pathway (AID 1159553)
- condition-description: C3RL4 RARE luciferase reporter, agonist, 6 h; series mostly up to 73.3 µM
- Source text: National Center for Advancing Translational Sciences [NCATS] NIH Chemical Genomics Center [NCGC] U.S. Environmental Protection Agency [EPA] National Institutes of Environmental Health Sciences [NIEHS] National Toxicology Program [NTP] […]
Records with an inconclusive call do not appear. Active and inactive are the calls of the source. Calls follow the shape of the dose curve; as a rule, active = well fitted activation curve with a large enough effect in the repeat runs; inconclusive = weak or mixed curves, or effect the other way; inactive = no such curve, though single readings can be large or run the other way.
The reply should name one outcome from YES for active, NO for inactive

Please review the entries below; each comes with its answer.
compound: OCC(O)CCl (centres undefined)
label: NO

compound: COP(=S)(OC)Oc1ccc(SC)c(C)c1
label: YES

compound: ClCCOCCCl
label: NO

compound: CNC(=O)O/N=C/C(C)(C)S(C)=O (centres undefined)
label: NO

Prompt: What is the recorded call for this compound in the test? CNC(=O)Oc1cccc2ccccc12
Completion: NO

Prompt: What call does the record list for COS(=O)(=O)OC ?
Completion: NO

Prompt: Outcome? Cc1cc(O)ccc1Cl
Completion: NO

Prompt: I'd appreciate the recorded outcome for CC[N+](=O)[O-] from this test.
Completion: NO

Prompt: Field: outcome | Entry: CNCC(O)c1ccc(O)cc1 (centres undefined)
Completion: NO

Prompt: What classification did C=CC#N end up with in this test?
Completion: NO

Prompt: Fill in: this test's call for CN1C(=O)CCS(=O)(=O)C1c1ccc(Cl)cc1 (centres undefined) is ___
Completion: NO

Prompt: Hi team, can someone confirm the assay call for C/C=C/c1ccc2c(c1)OCO2 ?
Completion: NO

Prompt: Given ClC(Cl)c1ccccc1 , state the outcome it received in this test.
Completion: NO

Prompt: I would be grateful if you could indicate the recorded call for Cl[C@H]1OCCO[C@@H]1Cl .
Completion: NO

###

- test-summary: qHTS assay for identifying genotoxic compounds that show differential cytotoxicity against isogenic chicken DT40 cell lines with known DNA damage response pathways - Rev3 mutant cell line (AID 743014); further: nearly all actives have a fitted effect of over 55% in size
- condition-description: chicken DT40 Rev3-/- viability, CellTiter-Glo, 40 h; series mostly up to 68.4 µM
Inconclusive results are not listed. Activity calls are given as the source filed them. The call rests on the fitted dose curve; in most records, active means well fitted cell-killing curve with a large enough effect in the repeat runs; inconclusive means weak or mixed curves, or effect the other way; inactive means no such curve, though single readings can be large or run the other way.
Assign a class; possible classes are active, inactive

Take a look at these entries with their results.
compound: CN(C)C(=O)C(c1ccccc1)c1ccccc1
label: inactive

compound: ClC(Cl)c1ccccc1
label: inactive

compound: COC(C)(C)CCCC(C)C/C=C/C(C)=C/C(=O)OC(C)C (stereo not given)
label: inactive

compound: COS(=O)(=O)OC
label: inactive

compound: C=CC#N
label: inactive

compound: CN1C(=O)CCS(=O)(=O)C1c1ccc(Cl)cc1 (stereo not given)
label: inactive

Prompt: Could you please tell me the result logged for CCOC(=O)CC(SP(=O)(OC)OC)C(=O)OCC (stereo not given) in this assay?
Completion: inactive

Prompt: Please share the test call associated with Cc1ccc(N=C=O)cc1N=C=O .
Completion: inactive

###

- test-summary: qHTS assay to identify small molecule agonists of the progesterone receptor (PR) signaling pathway - cell viability counter screen (AID 1346799); further: nearly all actives have a fitted effect of over 45% in size
- condition-description: PR-UAS-bla HEK293T viability, CellTiter-Glo luminescence, 16 h; series mostly up to 92.4 µM
Inconclusive results are not listed. Activity calls are given as the source filed them. Calls come from the whole dose curve.
observable: outcome

Example entries begin here.
molecule: CC(C)c1cccc(C(C)C)c1O
outcome: inactive
//
molecule: O=C(O)CCCc1ccc(N(CCCl)CCCl)cc1
outcome: inactive
//
molecule: O=C(O)C1C(C(=O)O)C2(Cl)C(Cl)=C(Cl)C1(Cl)C2(Cl)Cl (stereo unspecified)
outcome: inactive
//
molecule: CCCCC(CC)C(=O)Cl (stereo unspecified)
outcome: inactive
//
molecule: Clc1cnc(Oc2ccc(Oc3ncc(Cl)cc3Cl)cc2)c(Cl)c1
outcome: inactive
//
molecule: O=[N+]([O-])c1cc([As](=O)(O)O)ccc1O
outcome: inactive

Prompt: Quick one: give measured outcome for Nc1cc(Cl)cc(Cl)c1
Completion: inactive

Prompt: Item Cc1ccc(O)c(C)c1 : provide outcome
Completion: inactive

Prompt: Indicate its recorded outcome; the molecule in question is CC(=O)/C=C/c1ccccc1
Completion: inactive

Prompt: Please give the documented outcome of Cc1cccc(C)c1N
Completion: inactive

###

- test-summary: qHTS assay to test for compound auto fluorescence at 460 nm (blue) in HepG2 cell free culture (AID 720685)
- condition-description: Cell-free culture medium, blue autofluorescence 405/460 nm; series mostly up to 91.3 µM
Active and inactive are the calls of the source. The call rests on the fitted dose curve; in most records, active means well fitted curve in the direction sought with a large enough effect in the repeat runs; inconclusive means weak or mixed curves; inactive means flat fitted curve, though single readings scatter.
observable: outcome

Worked set:
compound: CNC(=O)O/N=C/C(C)(C)S(C)(=O)=O
outcome: inactive
--
compound: [N-]=[N+]=CC(=O)OC[C@H](N)C(=O)O
outcome: inactive
--
compound: Cc1ccc(N)cc1
outcome: inactive
--
compound: N#Cc1cccc(C#N)c1
outcome: inactive
--
compound: COS(=O)(=O)OC
outcome: inactive

Prompt: Item FC(F)(F)c1ccc(Cl)cc1 : provide outcome
Completion: inactive

Prompt: Give recorded outcome. O=C(O)C1C(C(=O)O)C2(Cl)C(Cl)=C(Cl)C1(Cl)C2(Cl)Cl (stereo not drawn)
Completion: inactive

Prompt: # return recorded outcome for input C/C=C/c1ccc2c(c1)OCO2
Completion: inactive

Prompt: For the compound Oc1ccc(Cl)cc1 , give its measured outcome value.
Completion: inactive

Prompt: Return outcome for the following compound: COC(=O)Nc1cccc(OC(=O)Nc2cccc(C)c2)c1
Completion: inactive

Prompt: State its outcome for this compound: COc1cc(-c2ccc(N)c(OC)c2)ccc1N
Completion: inactive

Prompt: State its outcome for this compound: CC(=O)/C=C/c1ccccc1
Completion: inactive

Prompt: Give the measured outcome for Cc1ccc(O)c(C)c1
Completion: inactive

###

- test-summary: qHTS RealTime-Glo MT Cell Viability Assay in HepG2 cells - 0 hour (AID 1224889); further: nearly all actives have a fitted effect of over 50% in size
- condition-description: RealTime-Glo luminescence; series mostly up to 76.8 µM
Records with an inconclusive call do not appear. The source made the active and inactive calls. Calls follow the shape of the dose curve; as a rule, active = well fitted cell-killing curve with a large enough effect in the repeat runs; inconclusive = weak or mixed curves, or effect the other way; inactive = flat fitted curve, though single readings scatter.
observable: outcome

Past entries and their recorded results:
compound: C/C=C/c1ccc2c(c1)OCO2
outcome: inactive
--
compound: CC(=O)C1CCOC1=O (stereo unspecified)
outcome: inactive
--
compound: Cc1cc(O)ccc1Cl
outcome: inactive
--
compound: NNc1ccccc1
outcome: inactive
--
compound: Nc1cccc(Cl)c1
outcome: inactive

Would you kindly look at the next entry?
Prompt: Supply measured outcome of Oc1ccc(Cl)cc1 in your reply.
Completion: inactive

###

- test-summary: qHTS assay to identify small molecule antagonists of the androgen receptor (AR) signaling pathway using the MDA cell line - cell viability counter screen (AID 743041; further: nearly all actives have a fitted effect of over 45% in size)
- condition-description: MDA-kb2 viability, CellTiter-Fluor, 16 h, cells co-treated with R1881 androgen agonist; series mostly up to 70.3 µM
Records with an inconclusive call do not appear. Active and inactive are the calls of the source. Calls follow the shape of the dose curve; as a rule, active = well fitted cell-killing curve with a large enough effect in the repeat runs; inconclusive = weak or mixed curves, or effect the other way; inactive = flat fitted curve, though single readings scatter.
observable: outcome

Solved entries (count: 5):
compound: COC(C)(C)CCCC(C)C/C=C/C(C)=C/C(=O)OC(C)C (stereo not drawn)
observed-result: inactive
//
compound: CCOP(=S)(OCC)Oc1cc(C)nc(C(C)C)n1
observed-result: inactive
//
compound: CNC(=O)O/N=C/C(C)(C)S(C)=O (stereo not drawn)
observed-result: inactive
//
compound: CC12CC1(C)C(=O)N(c1cc(Cl)cc(Cl)c1)C2=O (stereo not drawn)
observed-result: inactive
//
compound: Cc1cccc(N)c1C
observed-result: inactive

Prompt: Give me measured outcome, please, for this compound: O=C(O)C1C(C(=O)O)C2(Cl)C(Cl)=C(Cl)C1(Cl)C2(Cl)Cl (stereo not drawn)
Completion: inactive

Prompt: Given the compound Cc1ccccc1N , write its reported outcome.
Completion: inactive
